# System: A-375
# assay-name: Antiproliferative activity against human A375 cells after 48 hrs by MTT assay
# Type: functional, cell-based
# test-conditions: A-375, 48 h
quantity: IC50 (µg/mL)

Given "Oc1ccc(CC[C@@H](O)C[C@@H](O)CCc2ccccc2)cc1" , state its recorded IC50.
57.8

For "Oc1ccc(CC[C@H](O)C[C@@H](O)CCc2ccccc2)cc1" then?
56.3

For "COc1cc(CC[C@H](O)C[C@@H](O)CCc2ccccc2)ccc1O" then?
69.1

For "O[C@@H](CCc1ccccc1)C[C@@H](O)CCc1ccccc1" then?
148

A = COc1cc(CC[C@@H](O)C[C@@H](O)CCc2ccccc2)ccc1O
B = O[C@H](CCc1ccccc1)C[C@@H](O)CCc1ccccc1
Choose between A and B : whose measured IC50 value is numerically larger? Identify your pick by its label.
B
(B: 164 µg/mL, A: 75.2 µg/mL)

Ref: ChEMBL document CHEMBL1158416
